Each entry below carries its reported IC50.
- target_system: Peptidyl-prolyl cis-trans isomerase FKBP4 (Homo sapiens)
- assay_protocol: Binding affinity to FKBP52 FK1 domain by competitive fluorescence polarization assay
- condition_context: read-out: IC50

`COc1ccc(CC[C@@H](OC(=O)[C@@H]2CCCCN2S(=O)(=O)c2cc(Cl)cc(Cl)c2)c2cccc(OCCN3CCOCC3)c2)cc1OC` yielded IC50 of > 50 µM

`COc1ccc(CC[C@@H](OC(=O)[C@@H]2CCCCN2S(=O)(=O)c2cc(Cl)c(O)c(Cl)c2)c2cccc(OCC(=O)O)c2)cc1OC` yielded IC50 of 20.3 µM

`COc1ccc(CC[C@@H](OC(=O)[C@@H]2CCCCN2S(=O)(=O)c2ccc3ncsc3c2)c2cccc(OCCN3CCOCC3)c2)cc1OC` yielded IC50 of > 50 µM

Alright, here's another compound for you.
`COc1ccc(CC[C@@H](NC(=O)[C@@H]2CCCCN2S(=O)(=O)c2ccc3[nH]c(=O)sc3c2)c2cccc(OCC(=O)O)c2)cc1OC` yielded IC50 of > 100 µM

----------
Each entry below carries its reported IC50.
- target_system: Peptidyl-prolyl cis-trans isomerase FKBP4 (Homo sapiens, UniProt Q02790)
- Sequence (Q02790 whole entry, the tested form may be a part): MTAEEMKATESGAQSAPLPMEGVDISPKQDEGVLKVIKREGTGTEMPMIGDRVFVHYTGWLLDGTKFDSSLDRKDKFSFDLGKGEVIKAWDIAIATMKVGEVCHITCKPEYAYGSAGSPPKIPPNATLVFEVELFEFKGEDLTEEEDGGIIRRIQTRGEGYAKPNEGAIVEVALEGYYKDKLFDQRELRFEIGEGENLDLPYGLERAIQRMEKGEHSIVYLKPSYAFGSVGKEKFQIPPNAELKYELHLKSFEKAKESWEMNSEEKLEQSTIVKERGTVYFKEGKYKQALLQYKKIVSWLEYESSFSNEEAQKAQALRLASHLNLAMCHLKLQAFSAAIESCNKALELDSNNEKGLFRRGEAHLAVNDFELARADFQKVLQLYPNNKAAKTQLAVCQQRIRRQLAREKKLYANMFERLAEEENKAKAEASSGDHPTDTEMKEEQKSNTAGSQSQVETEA
- assay_protocol: Binding affinity to FKBP52 FK1 domain by competitive fluorescence polarization assay
- condition_context: read-out: IC50

`COc1ccc(CC[C@@H](OC(=O)[C@@H]2CCCCN2S(=O)(=O)c2ccc3c(c2)CC(=O)N3)c2cccc(OCC(=O)O)c2)cc1OC` yielded IC50 of > 100 µM

`COc1ccc(CC[C@@H](OC(=O)[C@@H]2CCCCN2S(=O)(=O)c2cccc([N+](=O)[O-])c2)c2cccc(OCC(=O)O)c2)cc1OC` yielded IC50 of > 100 µM

Alright, here's another molecule for you.
`COc1ccc(S(=O)(=O)N2CCCC[C@H]2C(=O)O[C@H](CCc2ccc(OC)c(OC)c2)c2cccc(OCC(=O)O)c2)cc1Cl` yielded IC50 of 40.3 µM

----------
- target_system: Peptidyl-prolyl cis-trans isomerase FKBP5 (Homo sapiens)
- Sequence (Q13451 whole entry): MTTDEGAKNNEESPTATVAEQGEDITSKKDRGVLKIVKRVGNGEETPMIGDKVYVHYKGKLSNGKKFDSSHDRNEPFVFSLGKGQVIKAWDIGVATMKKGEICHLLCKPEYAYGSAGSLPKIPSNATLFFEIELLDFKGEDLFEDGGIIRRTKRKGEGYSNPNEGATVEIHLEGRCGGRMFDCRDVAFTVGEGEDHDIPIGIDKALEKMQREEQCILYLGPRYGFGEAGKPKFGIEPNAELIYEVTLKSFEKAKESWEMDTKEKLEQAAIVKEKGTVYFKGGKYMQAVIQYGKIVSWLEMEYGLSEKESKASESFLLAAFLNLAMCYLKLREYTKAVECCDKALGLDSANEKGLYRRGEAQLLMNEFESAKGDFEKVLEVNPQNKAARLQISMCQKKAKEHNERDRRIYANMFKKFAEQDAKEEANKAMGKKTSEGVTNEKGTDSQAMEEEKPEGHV
- assay_protocol: Binding affinity to FKBP51 FK1 domain by competitive fluorescence polarization assay
- condition_context: read-out: IC50
Each entry below carries its reported IC50.

Examples from the recorded data:
`COc1ccc(CC[C@@H](OC(=O)[C@@H]2CCCCN2S(=O)(=O)c2cc(C(F)(F)F)cc(C(F)(F)F)c2)c2cccc(OCC(=O)O)c2)cc1OC` yielded IC50 of > 100 µM

`COc1ccc(CC[C@@H](OC(=O)[C@@H]2CCCCN2S(=O)(=O)c2cccc(-c3ccncn3)c2)c2cccc(OCC(=O)O)c2)cc1OC` yielded IC50 of > 100 µM

`COc1ccc(CC[C@@H](OC(=O)[C@@H]2CCCCN2S(=O)(=O)c2cc(Cl)c(OC)c(Cl)c2)c2cccc(OCCN3CCOCC3)c2)cc1OC` yielded IC50 of > 50 µM

`COc1ccc(CC[C@@H](NC(=O)[C@@H]2CCCCN2S(=O)(=O)c2ccc3[nH]c(=O)sc3c2)c2cccc(OCC(=O)O)c2)cc1OC` yielded IC50 of > 100 µM

`COc1ccc(CC[C@@H](OC(=O)[C@@H]2CCCCN2S(=O)(=O)c2ccc(OC)c(OC)c2)c2cccc(OCC(=O)O)c2)cc1OC` yielded IC50 of > 100 µM

`COc1ccc(CC[C@@H](NC(=O)[C@@H]2CCCCN2S(=O)(=O)c2cc(Cl)c(O)c(Cl)c2)c2cccc(OCC(=O)O)c2)cc1OC` yielded IC50 of > 100 µM

Others:
`COc1ccc(OCCOC(=O)[C@@H]2CCCCN2S(=O)(=O)c2cc(Cl)cc(Cl)c2)cc1OC` yielded IC50 of > 100 µM

`COc1ccc(CC[C@@H](OC(=O)[C@@H]2CCCCN2S(=O)(=O)c2ccc3ncsc3c2)c2cccc(OCCN3CCOCC3)c2)cc1OC` yielded IC50 of > 50 µM

`COc1ccc(CC[C@@H](OC(=O)[C@@H]2CCCCN2S(=O)(=O)c2ccc3c(c2)CC(=O)N3)c2cccc(OCC(=O)O)c2)cc1OC` yielded IC50 of > 100 µM

`COC(=O)c1cc(C(=O)OC)cc(S(=O)(=O)N2CCCC[C@H]2C(=O)O[C@H](CCc2ccc(OC)c(OC)c2)c2cccc(OCC(=O)O)c2)c1` yielded IC50 of > 100 µM

`COc1ccc(CC[C@@H](OC(=O)[C@@H]2CCCCN2S(=O)(=O)c2cc(Cl)cc(Cl)c2)c2cccc(OCCN3CCOCC3)c2)cc1OC` yielded IC50 of > 50 µM

`COc1ccc(CC[C@@H](OC(=O)[C@@H]2CCCCN2S(=O)(=O)c2ccoc2)c2cccc(OCC(=O)O)c2)cc1OC` yielded IC50 of > 100 µM

`COc1ccc(CC[C@@H](OC(=O)[C@@H]2CCCCN2S(=O)(=O)c2cc(N)c3c(c2)CCO3)c2cccc(OCC(=O)O)c2)cc1OC` yielded IC50 of > 100 µM

`COc1ccc(CC[C@@H](OC(=O)[C@@H]2CCCCN2S(=O)(=O)c2cc(Br)cc(C(F)(F)F)c2)c2cccc(OCC(=O)O)c2)cc1OC` yielded IC50 of > 100 µM

`COc1ccc(CC[C@@H](OC(=O)[C@@H]2CCCCN2S(=O)(=O)c2ccc3[nH]c(=O)oc3c2)c2cccc(OCC(=O)O)c2)cc1OC` yielded IC50 of > 100 µM

`COc1ccc(CC[C@@H](OC(=O)[C@@H]2CCCCN2S(=O)(=O)c2cccc(-c3ccnc(C)n3)c2)c2cccc(OCC(=O)O)c2)cc1OC` yielded IC50 of > 100 µM
